Values compiled from ChEMBL document CHEMBL3885861.

Organism: Rattus norvegicus
method: Open TG-GATES - Regimen: Daily Repeat
Format: toxicity, organism-based, Sprague-Dawley
Set-up: regimen Daily Repeat, gender Male, age 6 weeks
experimental parameters: in vivo, po, 1000 mg/kg, […], tissue Plasma, route gavage, dose level High, time 28 day
quantity name: A/G

smiles_representation=CN/C(=N/CCSCc1nc[nH]c1C)NC#N quantity_name=A/G reported_measurement=1.1
smiles_representation=CNC(=C[N+](=O)[O-])NCCSCc1ccc(CN(C)C)o1 quantity_name=A/G reported_measurement=1.3
smiles_representation=O=C(OC[C@H]1O[C@@H](OC(=O)c2cc(O)c(O)c(OC(=O)c3cc(O)c(O)c(O)c3)c2)[C@H](OC(=O)c2cc(O)c(O)c(OC(=O)c3cc(O)c(O)c(O)c3)c2)[C@@H](OC(=O)c2cc(O)c(O)c(OC(=O)c3cc(O)c(O)c(O)c3)c2)[C@@H]1OC(=O)c1cc(O)c(O)c(OC(=O)c2cc(O)c(O)c(O)c2)c1)c1cc(O)c(O)c(OC(=O)c2cc(O)c(O)c(O)c2)c1 quantity_name=A/G reported_measurement=1.8
smiles_representation=Cc1nnc2n1-c1ccc(Cl)cc1C(c1ccccc1Cl)=NC2 quantity_name=A/G reported_measurement=0.8

###

Items are presented alongside their recorded Plat.
Species: Rattus norvegicus
method: Open TG-GATES - Regimen: Daily Repeat
Format: toxicity, organism-based, Sprague-Dawley
Design: regimen Daily Repeat, gender Male, age 6 weeks
experimental parameters: in vivo, po, 1000 mg/kg, […], tissue Blood, route gavage, dose level High, time 7 day
quantity name: Plat (x10_4/uL)

smiles_representation=CNC(=C[N+](=O)[O-])NCCSCc1ccc(CN(C)C)o1 reported_measurement=121.8
smiles_representation=Cc1nnc2n1-c1ccc(Cl)cc1C(c1ccccc1Cl)=NC2 reported_measurement=129.1
smiles_representation=O=C(OC[C@H]1O[C@@H](OC(=O)c2cc(O)c(O)c(OC(=O)c3cc(O)c(O)c(O)c3)c2)[C@H](OC(=O)c2cc(O)c(O)c(OC(=O)c3cc(O)c(O)c(O)c3)c2)[C@@H](OC(=O)c2cc(O)c(O)c(OC(=O)c3cc(O)c(O)c(O)c3)c2)[C@@H]1OC(=O)c1cc(O)c(O)c(OC(=O)c2cc(O)c(O)c(O)c2)c1)c1cc(O)c(O)c(OC(=O)c2cc(O)c(O)c(O)c2)c1 reported_measurement=121.1
smiles_representation=CN/C(=N/CCSCc1nc[nH]c1C)NC#N reported_measurement=121.2
smiles_representation=CCOc1ccc(NC(C)=O)cc1 reported_measurement=156.2
smiles_representation=COC(=O)C1=C(C)NC(C)=C(C(=O)OC)C1c1ccccc1[N+](=O)[O-] reported_measurement=142.6

###

Organism: Rattus norvegicus
method: Open TG-GATES - Regimen: Daily Repeat
Assay type: toxicity, organism-based, Sprague-Dawley
Set-up: regimen Daily Repeat, gender Male, age 6 weeks
experimental parameters: in vivo, po, 100 mg/kg, […], tissue Plasma, route gavage, dose level Low, time 14 day
Label scheme for ALT: lower than 40 IU/L is false (0), 40 IU/L and above is true (1).

smiles_representation=CN/C(=N/CCSCc1nc[nH]c1C)NC#N cat="true (1)"
smiles_representation=O=C(OC[C@H]1O[C@@H](OC(=O)c2cc(O)c(O)c(OC(=O)c3cc(O)c(O)c(O)c3)c2)[C@H](OC(=O)c2cc(O)c(O)c(OC(=O)c3cc(O)c(O)c(O)c3)c2)[C@@H](OC(=O)c2cc(O)c(O)c(OC(=O)c3cc(O)c(O)c(O)c3)c2)[C@@H]1OC(=O)c1cc(O)c(O)c(OC(=O)c2cc(O)c(O)c(O)c2)c1)c1cc(O)c(O)c(OC(=O)c2cc(O)c(O)c(O)c2)c1 cat="false (0)"
smiles_representation=CNC(=C[N+](=O)[O-])NCCSCc1ccc(CN(C)C)o1 cat="false (0)"
smiles_representation=COC(=O)C1=C(C)NC(C)=C(C(=O)OC)C1c1ccccc1[N+](=O)[O-] cat="true (1)"
